Entry source: PubChem BioAssay (NCATS)

// reported activity, negative = inhibition for each item listed
assay: qHTS profiling for inhibitors of Plasmodium falciparum proliferation (AID 504749);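 further: 0% = DMSO vehicle and full inhibition = artemisinin control; nearly all actives have a fitted effect of over 60% in size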
test parameters: P. falciparum in erythrocytes, SYBR Green DNA, 72 h; at 12.8 µM (top of the series); parasite line A
Results filed as inconclusive are left out.
quantity name: activity, negative = inhibition (%)

[[record]]
chemical_smiles = "Cc1c(NC(=O)c2cccnc2)c(=O)n(-c2ccccc2)n1C"
quantity_name = "activity, negative = inhibition"
unit_descriptor = "%"
value_reported = 17.3

[[record]]
chemical_smiles = "CC(C)(C)C(=O)OCOC(=O)[C@@H]1N2C(=O)[C@@H](NC(=O)[C@H](N)c3ccccc3)[C@H]2SC1(C)C"
quantity_name = "activity, negative = inhibition"
unit_descriptor = "%"
value_reported = -1.26

[[record]]
chemical_smiles = "COc1ccc(NS(=O)(=O)c2ccc(N)cc2)nn1"
quantity_name = "activity, negative = inhibition"
unit_descriptor = "%"
value_reported = 2.8

[[record]]
chemical_smiles = "NCc1ccc(S(N)(=O)=O)cc1"
quantity_name = "activity, negative = inhibition"
unit_descriptor = "%"
value_reported = 6.73

[[record]]
chemical_smiles = "CCc1cccc(CC)c1NC(=O)CN(CC(=O)O)CC(=O)O"
quantity_name = "activity, negative = inhibition"
unit_descriptor = "%"
value_reported = 1.37

[[record]]
chemical_smiles = "CCCCC1(COC(=O)CCC(=O)O)C(=O)N(c2ccccc2)N(c2ccccc2)C1=O"
quantity_name = "activity, negative = inhibition"
unit_descriptor = "%"
value_reported = 7.36

[[record]]
chemical_smiles = "CC(=O)SC[C@@H](Cc1ccccc1)C(=O)NCC(=O)OCc1ccccc1"
quantity_name = "activity, negative = inhibition"
unit_descriptor = "%"
value_reported = -4.01

[[record]]
chemical_smiles = "C[C@@H]1CCC[C@H](C)N1"
quantity_name = "activity, negative = inhibition"
unit_descriptor = "%"
value_reported = 13.8

[[record]]
chemical_smiles = "CCS(=O)(=O)CCn1c([N+](=O)[O-])cnc1C"
quantity_name = "activity, negative = inhibition"
unit_descriptor = "%"
value_reported = -2.71

[[record]]
chemical_smiles = "COc1ccc2cc(CCC(C)=O)ccc2c1"
quantity_name = "activity, negative = inhibition"
unit_descriptor = "%"
value_reported = 8.55


###

Tested on: AA1029
assay: qHTS profiling for inhibitors of Plasmodium falciparum proliferation (AID 504749);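 further: 0% = DMSO vehicle and full inhibition = artemisinin control; nearly all actives have a fitted effect of over 60% in size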
test parameters: P. falciparum in erythrocytes, SYBR Green DNA, 72 h; series mostly up to 28.7 µM
Results filed as inconclusive are left out. Calls of active or inactive are those of the source. Calls follow the shape of the dose curve; as a rule, active = well fitted inhibition curve with a large enough effect; inconclusive = small, poorly fitted or top-dose-only effect; inactive = flat fitted curve, though single readings scatter.
quantity name: outcome

[[record]]
compound = "CC(N)CCCC(C)(C)O (stereo not drawn)"
quantity_name = "outcome"
value_reported = "inactive"

[[record]]
compound = "COc1ccc2cc(CCC(C)=O)ccc2c1"
quantity_name = "outcome"
value_reported = "inactive"

[[record]]
compound = "Cc1[nH]c(C)c(Cl)c(=O)c1Cl"
quantity_name = "outcome"
value_reported = "inactive"

[[record]]
compound = "O=C(/C=C/c1ccccc1)OCc1ccccc1"
quantity_name = "outcome"
value_reported = "inactive"

[[record]]
compound = "Cc1c(C)c2c(c(C)c1OC(=O)c1cccnc1)CC[C@@](C)(CCC[C@H](C)CCC[C@H](C)CCCC(C)C)O2"
quantity_name = "outcome"
value_reported = "inactive"

[[record]]
compound = "CCN(CC)CCc1nc(-c2ccccc2)no1"
quantity_name = "outcome"
value_reported = "inactive"

[[record]]
compound = "CC(O)CCCCn1c(=O)c2c(ncn2C)n(C)c1=O (stereo not drawn)"
quantity_name = "outcome"
value_reported = "inactive"

[[record]]
compound = "C=CCNC(N)=S"
quantity_name = "outcome"
value_reported = "inactive"

